# TEST: Cytotoxicity against human HT1080 cells assessed as growth inhibition after 48 hrs by MTT assay
# Assay type: functional, cell-based
# ASSAY_CONTEXT: HT-1080, 48 h
MEASURED_METRIC: IC50 (µM)
One number for each entry, in µM.

Name the recorded IC50 of the molecule listed here: CCCCCO/N=C1/[C@H](C)C[C@@](C)(OC)[C@H](O[C@@H]2O[C@H](C)C[C@H](N(C)CCN(C)[C@H]3C[C@@H](C)O[C@@H](O[C@@H]4[C@@H](C)[C@H](O[C@H]5C[C@@](C)(OC)[C@@H](O)[C@H](C)O5)[C@@H](C)C(=O)O[C@H](CC)[C@@](C)(O)[C@H](O)[C@@H](C)/C(=N\OCCCCC)[C@H](C)C[C@@]4(C)OC)[C@@H]3O)[C@H]2O)[C@@H](C)[C@H](O[C@H]2C[C@@](C)(OC)[C@@H](O)[C@H](C)O2)[C@@H](C)C(=O)O[C@H](CC)[C@@](C)(O)[C@H](O)[C@H]1C
54.1

###

# TEST: Cytotoxicity against human SGC7901 cells assessed as growth inhibition after 48 hrs by MTT assay
# Type: functional, cell-based
# ASSAY_CONTEXT: SGC-7901, 48 h
pIC50: −log10 of the molar value.
MEASURED_METRIC: pIC50

Please report pIC50 for the following compound: CC[C@H]1OC(=O)[C@H](C)[C@@H](O[C@H]2C[C@@](C)(OC)[C@@H](O)[C@H](C)O2)[C@H](C)[C@@H](O[C@@H]2O[C@H](C)C[C@H](N(C)CCN(C)[C@H]3C[C@@H](C)O[C@@H](O[C@@H]4[C@@H](C)[C@H](O[C@H]5C[C@@](C)(OC)[C@@H](O)[C@H](C)O5)[C@@H](C)C(=O)O[C@H](CC)[C@@](C)(O)[C@H](O)[C@@H](C)/C(=N\OCOCCOC)[C@H](C)C[C@@]4(C)O)[C@@H]3O)[C@H]2O)[C@](C)(O)C[C@@H](C)/C(=N/OCOCCOC)[C@H](C)[C@@H](O)[C@]1(C)O
< 4.00

###

Answer each item with its documented IC50.
# TEST: Cytotoxicity against human HT1080 cells assessed as growth inhibition after 48 hrs by MTT assay
# Format: functional, cell-based
# ASSAY_CONTEXT: HT-1080, 48 h

>  <INPUT_SMILES>
CC[C@H]1OC(=O)[C@H](C)[C@@H](O)[C@H](C)[C@@H](O[C@@H]2O[C@H](C)C[C@H](N(C)CCN(C)[C@H]3C[C@@H](C)O[C@@H](O[C@@H]4[C@@H](C)[C@H](O)[C@@H](C)C(=O)O[C@H](CC)[C@@](C)(O)[C@H](O)[C@@H](C)[C@@H](O)[C@H](C)C[C@@]4(C)O)[C@@H]3O)[C@H]2O)[C@](C)(O)C[C@@H](C)[C@H](O)[C@H](C)[C@@H](O)[C@]1(C)O

>  <READOUT_VALUE>
> 100 µM

$$$$
>  <INPUT_SMILES>
CC[C@H]1OC(=O)[C@H](C)[C@@H](O[C@H]2C[C@@](C)(OC)[C@@H](O)[C@H](C)O2)[C@H](C)[C@@H](O[C@@H]2O[C@H](C)C[C@H](N(C)CCN(C)[C@H]3C[C@@H](C)O[C@@H](O[C@@H]4[C@@H](C)[C@H](O[C@H]5C[C@@](C)(OC)[C@@H](O)[C@H](C)O5)[C@@H](C)C(=O)O[C@H](CC)[C@@](C)(O)[C@H](O)[C@@H](C)C(=O)[C@H](C)C[C@@]4(C)OC)[C@@H]3O)[C@H]2O)[C@](C)(O)C[C@@H](C)[C@H](O)[C@H](C)[C@@H](O)[C@]1(C)O

>  <READOUT_VALUE>
20.4 µM

$$$$

Look at each compound and report its IC50.
1. CC[C@H]1OC(=O)[C@H](C)[C@@H](O[C@H]2C[C@@](C)(OC)[C@@H](O)[C@H](C)O2)[C@H](C)[C@@H](O[C@@H]2O[C@H](C)C[C@H](N(C)CCN(C)[C@H]3C[C@@H](C)O[C@@H](O[C@@H]4[C@@H](C)[C@H](O[C@H]5C[C@@](C)(OC)[C@@H](O)[C@H](C)O5)[C@@H](C)C(=O)O[C@H](CC)[C@@](C)(O)[C@H](O)[C@@H](C)C(=O)[C@H](C)C[C@@]4(C)O)[C@@H]3O)[C@H]2O)[C@](C)(O)C[C@@H](C)C(=O)[C@H](C)[C@@H](O)[C@]1(C)O
2. CC[C@H]1OC(=O)[C@H](C)[C@@H](O[C@H]2C[C@@](C)(OC)[C@@H](O)[C@H](C)O2)[C@H](C)[C@@H](O[C@@H]2O[C@H](C)C[C@H](N(C)C(=O)CN(C)[C@H]3C[C@@H](C)O[C@@H](O[C@@H]4[C@@H](C)[C@H](O[C@H]5C[C@@](C)(OC)[C@@H](O)[C@H](C)O5)[C@@H](C)C(=O)O[C@H](CC)[C@@](C)(O)[C@H](O)[C@@H](C)/C(=N\OCOCCOC)[C@H](C)C[C@@]4(C)O)[C@@H]3O)[C@H]2O)[C@](C)(OC)C[C@@H](C)C(=O)[C@H](C)[C@@H](O)[C@]1(C)O

1: > 100 µM; 2: > 100 µM

Source listed as ChEMBL document CHEMBL3217717.
